measurement-notes: Inhibition of IL-1beta production in LPS-induced mouse RAW264.7 cells pretreated for 1 hr followed by LPS stimulation and measured after 24 hrs by ELISA
Assay type: functional, cell-based
readout: IC50 (µM)

Q) // IC50 lookup, key: COc1ccc2c(c1)oc(=O)n2CCNC(=O)/C=C/c1ccc([N+](=O)[O-])o1
A) 11.8

a = Cc1ccc(-c2cc(C(F)(F)F)nn2-c2ccc(S(N)(=O)=O)cc2)cc1 [CELECOXIB]
b = COc1ccc2[nH]c(=O)oc2c1 [COIXOL]
Q) Which item exceeds the other in IC50, a or b ? Let me know the label of the one you choose.
A) b
